assay.target: Dihydrofolate reductase (Pneumocystis carinii, UniProt P16184)
Sequence (P16184 whole entry): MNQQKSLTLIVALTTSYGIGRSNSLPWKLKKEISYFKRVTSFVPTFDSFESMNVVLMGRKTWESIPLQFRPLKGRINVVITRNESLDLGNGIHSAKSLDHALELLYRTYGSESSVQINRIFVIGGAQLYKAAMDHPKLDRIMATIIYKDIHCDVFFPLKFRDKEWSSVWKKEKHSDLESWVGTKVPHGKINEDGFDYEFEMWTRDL
pIC50: −log10 of the molar value.
Decision: pIC50 compared against 5; not below it gives t, below it gives f.

Field: example entries. Status: answers known.
INSERT INTO assay_data (compound, label_class) VALUES
  ('CN(Cc1c[nH]c2nc(N)nc(N)c12)c1ccc(Cl)c(Cl)c1', 'f'),
  ('Nc1nc(N)c2c(CSc3ccc(Cl)c(Cl)c3)c[nH]c2n1', 'f');

Kindly determine if pIC50 recorded for COc1ccc(OC)c(N(C)Cc2c[nH]c3nc(N)nc(N)c23)c1 is above or exactly 5.
f

Dear colleague, could you confirm whether CN(Cc1c[nH]c2nc(N)nc(N)c12)c1cccc2ccccc12 has pIC50 at or above 5?
f

hey, is pIC50 for this one >= 5? CN(Cc1c[nH]c2nc(N)nc(N)c12)c1ccc(C(=O)N(C)C(CCC(=O)O)C(=O)O)cc1 (stereo unspecified)
t

* * *

Target sequence: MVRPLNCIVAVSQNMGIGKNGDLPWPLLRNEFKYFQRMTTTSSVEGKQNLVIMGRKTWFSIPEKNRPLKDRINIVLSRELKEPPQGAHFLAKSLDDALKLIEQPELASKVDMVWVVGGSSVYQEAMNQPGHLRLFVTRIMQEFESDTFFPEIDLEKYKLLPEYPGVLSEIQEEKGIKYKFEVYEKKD
The molecules listed here are annotated with their IC50.
Please reply with the bare figure in µM and do not write the unit itself.

response.value for Nc1nc(N)c2c(CSc3cccc4ccccc34)c[nH]c2n1 (field: IC50) = 3

Lab note: measured IC50 of Nc1nc(N)c2c(CSc3ccc(Cl)c(Cl)c3)c[nH]c2n1 was 5.3

Measured IC50 of COc1ccc(SCc2c[nH]c3nc(N)nc(N)c23)cc1OC : 16.7

Note to self: IC50 recorded for CN(Cc1c[nH]c2nc(N)nc(N)c12)c1ccc(Cl)c(Cl)c1 was 3

* * *

assay.target: Bifunctional dihydrofolate reductase-thymidylate synthase (Toxoplasma gondii, UniProt Q07422)
Sequence (Q07422 whole entry): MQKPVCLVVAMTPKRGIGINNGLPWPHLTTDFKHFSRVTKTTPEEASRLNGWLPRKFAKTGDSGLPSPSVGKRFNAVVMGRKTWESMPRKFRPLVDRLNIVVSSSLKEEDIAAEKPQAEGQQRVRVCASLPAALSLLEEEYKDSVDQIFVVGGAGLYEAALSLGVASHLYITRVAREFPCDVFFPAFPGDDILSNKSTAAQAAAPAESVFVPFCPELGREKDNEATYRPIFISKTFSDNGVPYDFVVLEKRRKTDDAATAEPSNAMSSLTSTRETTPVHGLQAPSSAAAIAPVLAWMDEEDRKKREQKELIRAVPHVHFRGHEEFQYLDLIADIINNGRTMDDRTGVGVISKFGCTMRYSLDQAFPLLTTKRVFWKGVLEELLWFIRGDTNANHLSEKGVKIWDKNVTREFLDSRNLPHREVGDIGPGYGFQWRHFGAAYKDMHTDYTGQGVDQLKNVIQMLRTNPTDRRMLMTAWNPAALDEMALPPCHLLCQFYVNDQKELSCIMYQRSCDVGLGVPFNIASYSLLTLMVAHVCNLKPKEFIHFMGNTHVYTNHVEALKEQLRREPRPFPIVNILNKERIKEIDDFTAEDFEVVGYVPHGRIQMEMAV
IC50 for assorted compounds
Give the number; nM is assumed, so skip it.

Reference set, count: 6
INSERT INTO results (compound, observed_measurement) VALUES
  ('COc1ccc(OC)c(N(C)Cc2c[nH]c3nc(N)nc(N)c23)c1', 3400),
  ('COc1ccc(SCc2c[nH]c3nc(N)nc(N)c23)cc1OC', 2600),
  ('Nc1nc(N)c2c(CSc3ccc4ccccc4c3)c[nH]c2n1', 9200),
  ('Nc1nc(N)c2c(CSc3ccc(Cl)c(Cl)c3)c[nH]c2n1', 11600),
  ('Nc1nc(N)c2c(CSc3cccc4ccccc34)c[nH]c2n1', 810),
  ('CN(Cc1c[nH]c2nc(N)nc(N)c12)c1cccc2ccccc12', 870);

CN(Cc1c[nH]c2nc(N)nc(N)c12)c1ccc(Cl)c(Cl)c1 yielded IC50 of 1000

IC50 in this record for CN(Cc1c[nH]c2nc(N)nc(N)c12)c1ccc(C(=O)N(C)C(CCC(=O)O)C(=O)O)cc1 (stereo not drawn) : 150

Provenance of the data: ChEMBL document CHEMBL1129990
